- TARGET OF ASSAY: T1, Anti-PSMA Fab (SEQ ID NOs: 19, 20)
- T1 construct: Biotinylated and captured on neutravidin coated plates in the phage ELISA; also called 006 PSMA Fab
- EXPERIMENTAL PROTOCOL: phage binding ELISA on captured Fab; competitor PSMA antigen pre-incubated in the wells
MEASURED METRIC: Anti-PSMA Fab signal in the presence of PSMA
Give only the figure.

BINDER: HAMWCIPAWMCENL (Clonal phage of the peptide-180 library, tested as crude phage supernatant; not shown: fused to pIII of the bacteriophage) [Phage-2194]
RECORDED RESULT: 0.0809
//
BINDER: VEKWCIPSWMCQEL (Clonal phage of the peptide-180 library, tested as crude phage supernatant; not shown: fused to pIII of the bacteriophage) [Phage-2199]
RECORDED RESULT: 0.0642
//
BINDER: LEKWCIPSWMCDGM (Clonal phage of the peptide-180 library, tested as crude phage supernatant; not shown: fused to pIII of the bacteriophage) [Phage-2197]
RECORDED RESULT: 0.0637

Next:
Per the records, this binder ( HDKWCIPEWMCISL (Clonal phage of the peptide-180 library, tested as crude phage supernatant; not shown: fused to pIII of the bacteriophage) [Phage-2202] ) has Anti-PSMA Fab signal in the presence of PSMA equal to 0.075
